Data provenance: the METLIN SMRT retention time set (Domingo-Almenara et al. 2019)

Recorded RP-LC retention time values for a group of compounds are listed next.
assay: gradient 5% acetonitrile 3 min, to 50% in 2 min, to 85% in 15 min, held 3 min, 100 µL/min; settings: column: Zorbax Extend-C18 2.1 x 50 mm; eluents: water / acetonitrile, 0.1% formic acid
Note: state the figure and append the unit.

# Compound, RP-LC retention time
data = [
    ("CC(=O)c1ccc(N2CCN(C(=O)Cn3cccc3-c3nnc(C4CCC4)o3)CC2)cc1", "824 s"),
]

Entry CCc1ccc(CNC(=O)C2CCc3nc(N4CCOCC4)ncc3C2)cc1 (centres undefined) ; RP-LC retention time = 802 s

Entry O=C(c1ccccc1)N1CCc2cc(CNS(=O)(=O)c3ccccc3)ccc21 ; RP-LC retention time = 819 s

Entry Cc1ccc(CNC(=O)Cn2nc(C)c3nn(-c4ccccc4)c(C)c3c2=O)o1 ; RP-LC retention time = 816 s

----------
assay: gradient 5% acetonitrile 3 min, to 50% in 2 min, to 85% in 15 min, held 3 min, 100 µL/min; settings: column: Zorbax Extend-C18 2.1 x 50 mm; eluents: water / acetonitrile, 0.1% formic acid
Parameter measured: RP-LC retention time (s)
Return type: number; implicit unit s.

See these solved cases before continuing.
# Molecule, U, Endpoint result
measured = [
    ("CCOC(=O)c1c(C)[nH]c(CCC(=O)Nc2cc(F)ccc2F)c1C", "s", 933),
    ("CC(C)CCN1CCC(C2CCN(C(=O)c3ccncc3)C2)CC1 (stereo not given)", "s", 556),
    ("Cc1ccc(C(=O)N2CCC3(CC2)NC(=O)c2ccc(F)cc2N3C)cc1", "s", 763),
    ("COc1cc(OC)c(NC(=O)NCC(c2cccnc2)c2cn(C)c3ccccc23)cc1Cl (stereo not given)", "s", 741),
    ("Cc1ccc(NC(=O)N2CCC3(CC2)NC(=O)c2ccccc2O3)c(C)c1", "s", 750),
]

Entry CCn1nccc1-c1cccc(-c2noc(C3CC(=O)N(c4cccc(Cl)c4)C3)n2)c1 (stereo not given) ; RP-LC retention time = 1090

Entry CCOc1ccc(-n2c(CN3CCN(C(=O)NCCC(C)C)CC3)nc3cccnc32)cc1 ; RP-LC retention time = 684

----------
test: gradient 5% acetonitrile 3 min, to 50% in 2 min, to 85% in 15 min, held 3 min, 100 µL/min; conditions: column: Zorbax Extend-C18 2.1 x 50 mm; eluents: water / acetonitrile, 0.1% formic acid
Parameter measured: RP-LC retention time

# Compound, RP-LC retention time
measured = [
    ("Cc1ccc(-c2cc3n(n2)CCCN(C(=O)c2ccsc2)C3)cc1", "845 s"),
    ("CCn1c(=O)c(C(=O)N2CCN(c3ccccn3)CC2)nc2cc(C)c(C)cc21", "625 s"),
    ("CCC(C)NC(=O)N1CCCN(C2=NS(=O)(=O)C(c3ccccc3)=C2C)CC1 (stereo not given)", "748 s"),
    ("CSc1cccc(NC(=O)C2CCN(C(=O)c3cc(-c4ccncc4)n[nH]3)CC2)c1", "637 s"),
    ("O=C(CN1CCN(Cc2ccc(F)cc2)C(=O)C1=O)N1CCN(c2ccccc2F)CC1", "778 s"),
]

Entry CCn1cnc(S(=O)(=O)N2CCC(C(=O)NCc3ccc4c(c3)OCO4)CC2)c1 ; RP-LC retention time = 684 s

Entry CCS(=O)(=O)N1CC(=O)N(c2ccc(Cl)cc2C)C(C)(C(=O)NCc2ccc(F)cc2)C1 (stereo not given) ; RP-LC retention time = 882 s

----------
assay: gradient 5% acetonitrile 3 min, to 50% in 2 min, to 85% in 15 min, held 3 min, 100 µL/min; conditions: column: Zorbax Extend-C18 2.1 x 50 mm; eluents: water / acetonitrile, 0.1% formic acid
Parameter measured: RP-LC retention time
Note: state the figure and append the unit.

See these solved cases before continuing.
# Structure notation, RP-LC retention time
rows = [
    ("CCOc1ccc(S(=O)(=O)[C@H]2CS(=O)(=O)C[C@@H]2N2CCC(C(=O)OC)CC2)cc1", "858 s"),
    ("Cc1nc(-c2ccc3c(c2)n(CC(=O)NC2CCCCCC2)c(=O)n3C(C)C)no1", "841 s"),
    ("CCc1nc(-c2ccnc(N3CCCC3)c2)no1", "616 s"),
]

Entry CCc1ccc(S(=O)(=O)Nc2ccc3c(c2)nc(-c2ccc(C(=O)NC)cc2)n3C)cc1 ; RP-LC retention time = 674 s

Entry O=C(c1ccccc1Cl)N1CCN(c2cc(-c3ccc(Cl)cc3)[nH]n2)CC1 ; RP-LC retention time = 854 s

Entry CCOC(=O)Cc1csc(NC(=O)CSc2nnc3ccccn23)n1 ; RP-LC retention time = 617 s

Entry Cc1cc(C)cc(NC(=O)Nc2nccn(-c3cccc(F)c3)c2=O)c1 ; RP-LC retention time = 1030 s

Entry CSc1ccccc1NC(=O)c1cnc(-c2ccc(C)cc2)nc1-c1ccncc1 ; RP-LC retention time = 973 s

Entry CCc1cccc(NC(=O)Cn2nc3n(c2=O)CCCCC3)c1 ; RP-LC retention time = 722 s

Entry Cc1ccccc1CNC(=O)c1csc(-c2cn(C)c3ncccc23)n1 ; RP-LC retention time = 1120 s

Entry Cc1cc(NCc2ccccn2)nc(-n2cc([N+](=O)[O-])cn2)n1 ; RP-LC retention time = 564 s

----------
Recorded RP-LC retention time values for a group of compounds are listed next.
assay: gradient 5% acetonitrile 3 min, to 50% in 2 min, to 85% in 15 min, held 3 min, 100 µL/min; conditions: column: Zorbax Extend-C18 2.1 x 50 mm; eluents: water / acetonitrile, 0.1% formic acid
Return type: number; implicit unit s.

See these solved cases before continuing.
# Compound, U, RP-LC retention time
records = [
    ("Cc1ccccc1OCC(=O)NC[C@@]12CCC[C@H]1N(C)C(=O)CC2", "s", 755),
    ("Cc1ccsc1C(=O)NC1CCN(c2cc(-c3ccc(F)cc3)[nH]n2)C1 (centres undefined)", "s", 670),
    ("CCCC(NC(=O)c1ccc(C(F)(F)F)cc1)C(=O)Nc1nc2ccccc2[nH]1 (centres undefined)", "s", 802),
    ("Cc1cc(OC(C)C(=O)N[C@H](C(=O)O)C(C)C)c2c3c(c(=O)oc2c1)CCCC3 (some centres undefined)", "s", 865),
    ("Cn1nc(-c2nnc(-c3ccccc3F)o2)c2c1CCN(S(=O)(=O)c1ccc3c(c1)CCCC3)C2", "s", 1090),
]

Entry COc1cc(NC(=O)CN2C(=O)CC(c3ccc(Cl)cc3)=Nc3cccnc32)cc(OC)c1 ; RP-LC retention time = 1000

Entry CN1CCc2cccc3c2C1Cc1ccc(O)c(O)c1-3 (centres undefined) ; RP-LC retention time = 606

Entry COC(=O)c1cnc2nc(C)ccc2c1Nc1ccc(C)cc1Cl ; RP-LC retention time = 752

Entry CCc1ccccc1NC(=O)N1CCC2(CC1)NC(=O)c1cc(F)ccc1N2C ; RP-LC retention time = 791

----------
experiment: gradient 5% acetonitrile 3 min, to 50% in 2 min, to 85% in 15 min, held 3 min, 100 µL/min; details: column: Zorbax Extend-C18 2.1 x 50 mm; eluents: water / acetonitrile, 0.1% formic acid
Recorded RP-LC retention time values for a group of compounds are listed next.
Return type: number; implicit unit s.

See these solved cases before continuing.
# Compound, U, RP-LC retention time
records = [
    ("Cc1cc(-c2nnc(-c3ccc(F)cc3)o2)c(C)n1CC(=O)Nc1cccc(F)c1", "s", 987),
    ("CC(C)Oc1ccc(CNC(=O)c2nnc(-c3ccc(S(=O)(=O)N(C)C)cc3)o2)cc1", "s", 943),
    ("Cc1ccc(-c2nnc(N3CCC(C(=O)N4CCC5(CC4)OCCO5)CC3)o2)cc1", "s", 755),
    ("CCN1C(=O)c2ccccc2Oc2ccc(C(=O)N3CCC4(CC3)OCCO4)cc21", "s", 770),
    ("CCCNC(=O)Cn1c(=O)c2cccn2c2ccc(F)cc21", "s", 729),
    ("CCc1ccc(CNC(=O)c2cc3n(n2)CC(C)(C(=O)NC2CCCC2)N(C)C3=O)cc1 (centres undefined)", "s", 812),
    ("CCCc1nc2ccc(NC(=O)NCC)cc2c(=O)n1Cc1ccc(-c2ccccc2)cc1", "s", 996),
    ("Cc1nn(CC(=O)N2CCCC(C)C2)c(=O)c2nc(-c3ccccc3)sc12 (centres undefined)", "s", 875),
]

Entry Cc1ccccc1-c1ccc(N2CCN(C(=O)NC3CCCCC3)CC2)nn1 ; RP-LC retention time = 631

----------
experiment: gradient 5% acetonitrile 3 min, to 50% in 2 min, to 85% in 15 min, held 3 min, 100 µL/min; details: column: Zorbax Extend-C18 2.1 x 50 mm; eluents: water / acetonitrile, 0.1% formic acid
Recorded RP-LC retention time values for a group of compounds are listed next.
Return type: number; implicit unit s.

# Compound, U, RP-LC retention time
rows = [
    ("CCn1cc(C)c(C(=O)O)c1CC(=O)NCCCN1CCOCC1", "s", 588),
]

Entry Cc1ncc2c(n1)C[C@@H]1CC[C@H]2N1C(=O)Nc1ccccc1 ; RP-LC retention time = 636

Entry O=C(CCNc1c(-c2ccc(F)cc2)nc2cnccn12)Nc1ccc2c(c1)OCCO2 ; RP-LC retention time = 704

Entry COc1cc(OC)c(NC(=O)N2CCCC(C)(C(=O)NCc3ccc(F)cc3)C2)cc1Cl (configuration not stated) ; RP-LC retention time = 916

Entry CCOC(=O)CCNC(=O)NCc1nnnn1-c1ccc(OCC)cc1 ; RP-LC retention time = 675

Entry CCn1cnc(S(=O)(=O)N2CCC(C(=O)NCc3ccc(OC(C)C)cc3)CC2)c1 ; RP-LC retention time = 749

Entry Cc1cccc(C)c1-n1ccn(Cc2nc(-c3ccccn3)no2)c(=O)c1=O ; RP-LC retention time = 695
